Below, each of the binders is paired with its reported Kd value.
Experimental target: T1, Recombinant MBP-mutCALR Type 1 fusion protein (human)
T1 construct: custom made at Cepter; also called recombinant mutCALR protein
Assay protocol: SPR, IgG captured, 1:1 fit, Exp. 2
// note: answer is a bare numeric in nM

Solved cases below.
Binder	Unit	Kd
anti-mutCALR antibody clone 66 (antibody, human IgG1, lambda, N297A, V domains shown, human IgG1 N297A variant of clone 6) VH: EVQLVQSGAEVKKPGASVKVSCKVSGYTLTELSMQWVRQAPGKGLEWMGGFDPDAGETMYAEKFQGRLTVTEDTSTDTVYMELRSLTSEDTALYFCATSPGYDFFDYWGQGTLVTVSS VL: SYVLTQPPSVSVAPGKTARITCTGTSSDVGGYNYVSWYQQKPGQAPVLVVYEVSNRPSGIPERFSGSNSGNTATLTISRVEAGDEADYYCQVWDSSNDLLIFGGGTKLTVLG	nM	2.36
anti-mutCALR antibody clone 132 (antibody, human IgG1, lambda, N297A, V domains shown, human IgG1 N297A variant of clone 15) VH: EVQLVQSGAEVKKPGASVKVSCKVSGYTLTELSMQWVRQAPGKGLEWMGGFDPDEGETMYAEKFQGRLTVTEDTSTDTVYMELSSLRSEDTAVYFCATSPGYDFFDYWGQGTLVTVSS VL: SYELTQPPSVSVAPGKTARITCGGDNIGSKSVHWYQQKPGQAPVLVVYDDSDRPSGIPERFSGSNSGNTATLTINRVEAGDEADYYCQVWDSSNDLLIFGGGTKLTVLG	nM	2.16
anti-mutCALR antibody clone 83 (antibody, human IgG1, lambda, N297A, V domains shown, human IgG1 N297A variant of clone 6) VH: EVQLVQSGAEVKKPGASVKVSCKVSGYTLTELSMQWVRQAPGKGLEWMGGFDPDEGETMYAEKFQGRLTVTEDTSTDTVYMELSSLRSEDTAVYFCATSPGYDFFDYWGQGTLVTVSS VL: SYVLTQPPSVSVAPGKTARITCGGNNIGSKSVHWYQQKPGQAPVLVVYDDSDRPSGIPERFSGSNSGNTATLTISRVEAGDEADYYCQVWDSSNDLLIFGGGTKLTVLG	nM	1.76

Exercise: So what does the record say about Kd for anti-mutCALR antibody clone 59 (antibody, human IgG1, lambda, N297A, V domains shown, human IgG1 N297A variant of clone 6) VH: EVQLVQSGAEVKKPGASVKVSCKVSGYTLTELSMQWVRQAPGKGLEWMGGFDPDDAETMYAEKFQGRLTVTEDTSTDTVYMELRSLTSEDTALYFCATSPGYDFFDYWGQGTLVTVSS VL: QSALTQPASVSGSPGQSITISCTGTSSDVGGYNYVSWYQQHPGKAPKLMIYEVSNRPSGVSNRFSGSNSGNTATLTINRVEAGDEADYYCQVWDSSNDLLIFGGGTKLTVLG ?
Solution: 1.44

Exercise: Next: anti-mutCALR antibody clone 130 (antibody, human IgG1, lambda, N297A, V domains shown, human IgG1 N297A variant of clone 15) VH: EVQLVQSGAEVKKPGASVKVSCKVSGYTLTELSMQWVRQAPGKGLEWMGGFDPDAGETMYAEKFQGRLTVTEDTSTDTVYMELSSLRSEDTAVYFCATSPGYDFFDYWGQGTLVTVSS VL: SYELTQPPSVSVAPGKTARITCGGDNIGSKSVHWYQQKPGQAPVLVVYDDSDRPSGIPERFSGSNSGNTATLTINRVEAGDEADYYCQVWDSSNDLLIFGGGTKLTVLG
Solution: 4.71
